Reference source: paper PMC10663500

// reported Kd per item
molecular target: T1, human programmed cell death protein 1 (hPD-1) C93S (aa 24-167) (Homo sapiens, UniProt Q15116, C93S); assay: SPR; Carterra LSA; Fab from the ammonium sulfate precipitate of the culture supernatant immobilised on a NiHC200M chip; hPD-1 (1-1024 nM) or mPD-1-Fc (4-1024 nM) as analyte, fourfold dilution series, no regeneration; HBS-EP pH 7.4, 25 °C; medians over the spots of a construct, KD = koff/kon; conditions: one partner purified
T1 construct: made as a fusion with a TEV site and human Fc; the Fc was cut off with TEV protease; source: Expi293F, purified (Protein A, TEV cleavage of Fc, SEC; monomer fractions); not shown: Fc (human), C-terminal, cleaved
T1 sequence (Q15116 24-167 C93S): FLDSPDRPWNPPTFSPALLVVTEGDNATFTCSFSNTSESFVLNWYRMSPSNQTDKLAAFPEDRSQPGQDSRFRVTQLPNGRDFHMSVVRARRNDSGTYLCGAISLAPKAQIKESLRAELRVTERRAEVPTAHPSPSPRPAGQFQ

Sample answers from the record:
binder	experimental.endpoint	measured.value
toripalimab Fab L.H98A (Fab, V domains shown, as the heavy chain of Sm3; light chain of Sm3 with this change; numbers count from the chain's first residue; source: Brevibacillus, culture supernatant (ammonium sulfate precipitate); not shown: 6xHis, C-terminal, kept; 6xHN, C-terminal, kept) VH: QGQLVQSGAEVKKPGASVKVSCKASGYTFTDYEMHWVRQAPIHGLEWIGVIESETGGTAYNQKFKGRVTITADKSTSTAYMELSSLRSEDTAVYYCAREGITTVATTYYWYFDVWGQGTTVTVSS VL: DVVMTQSPLSLPVTLGQPASISCRSSQSIVHSNGNTYLEWYLQKPGQSPQLLIYKVSNRFSGVPDRFSGSGSGTDFTLKISRVEAEDVGVYYCFQGSAVPLTFGQGTKLEIK	Kd	< 0.436 nM
toripalimab Fab H.T107A (Fab, V domains shown, heavy chain of Sm3 with this change; numbers count from the chain's first residue; as the light chain of Sm3; source: Brevibacillus, culture supernatant (ammonium sulfate precipitate); not shown: 6xHis, C-terminal, kept; 6xHN, C-terminal, kept) VH: QGQLVQSGAEVKKPGASVKVSCKASGYTFTDYEMHWVRQAPIHGLEWIGVIESETGGTAYNQKFKGRVTITADKSTSTAYMELSSLRSEDTAVYYCAREGITTVATAYYWYFDVWGQGTTVTVSS VL: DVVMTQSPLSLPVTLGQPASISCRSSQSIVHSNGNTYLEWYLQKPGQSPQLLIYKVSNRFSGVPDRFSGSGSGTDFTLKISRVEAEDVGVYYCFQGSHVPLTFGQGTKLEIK	Kd	< 1.53 nM

Sample toripalimab Fab L.H98Y (Fab, V domains shown, as the heavy chain of Sm3; light chain of Sm3 with this change; numbers count from the chain's first residue; source: Brevibacillus, culture supernatant (ammonium sulfate precipitate); not shown: 6xHis, C-terminal, kept; 6xHN, C-terminal, kept) VH: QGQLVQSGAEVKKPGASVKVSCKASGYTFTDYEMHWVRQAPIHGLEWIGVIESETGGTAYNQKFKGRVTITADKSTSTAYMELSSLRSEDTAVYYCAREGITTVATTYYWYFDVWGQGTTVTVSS VL: DVVMTQSPLSLPVTLGQPASISCRSSQSIVHSNGNTYLEWYLQKPGQSPQLLIYKVSNRFSGVPDRFSGSGSGTDFTLKISRVEAEDVGVYYCFQGSYVPLTFGQGTKLEIK ; Kd observed: 0.737 nM
